# tested_on: Virion infectivity factor (Human immunodeficiency virus type 1 group M subtype B (isolate BH10)) + Virion infectivity factor (Human immunodeficiency virus type 1 group M subtype B (isolate BRU/LAI)) + Virion infectivity factor (Human immunodeficiency virus type 1 group M subtype B (isolate PCV12)) + Virion infectivity factor (Human immunodeficiency virus type 1 group M subtype B (isolate HXB2)) + DNA dC->dU-editing enzyme APOBEC-3G (Homo sapiens) (UniProt P69720+P69721+P69722+P69723+Q9HC16)
# experimental_protocol: inhibitors of Vif binding to APOBEC3G peptide, primary screen, biochemical, TR-FRET, GST-Vif 1-94, biotin-A3G peptide, dose response retest (AID 1117319);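 also: Vif residues 1-94 fused to GST binding biotinylated APOBEC3G peptide 110-148; 0% = full assay without inhibitor and 100% = GST in place of GST-Vif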
# settings: stronger effect = higher value
The campaign covered roughly 260,000 compounds. About 1,500 (0.58%) were called active. About 5% were inconclusive and are not listed. These entries were drawn from the full list. Potency and affinity values are given separately.
measure: inhibition (%)
I only need the number, in %, no unit after it.

Past entries and their recorded results:
| compound | readout_number |
| --- | --- |
| COc1cccc(NC(=O)CN2C(=O)COc3ccc(S(=O)(=O)N4CCOCC4)cc32)c1 | 0 |
| COc1ccc(C2C(C#N)=C(N)Oc3c2ccc2cccnc32)cc1OC (centres undefined) | 18.2 |
| O=[N+]([O-])c1cc(F)c(N2CCCCC2)cc1N1CCOCC1 | 8.86 |
| CCCn1c(SC/C(O)=C(\C#N)c2nc3ccccc3[nH]2)n[nH]c1=O | 8.52 |
| O=C(CCCCn1ccc(=O)[nH]c1=O)Nc1ccc(O)c(C(=O)O)c1 | -11.5 |
| O=C(CCC1CCCC1)NNC(=O)c1ccccc1O | -4.22 |

Input line: Look up inhibition: O=C(Cn1c2c(c(-c3ccccc3Cl)cc1=O)CCC2)NCCCN1CCOCC1
Output line: 22.2

Input line: Look up inhibition: Cc1occc1C(=O)N(C)CC1CCCN(CCc2ccccc2F)C1 (centres undefined)
Output line: 7.6

Input line: Look up inhibition: CC(C)(C)NC(=O)Cn1c(=O)c(=O)n(Cc2ccccc2)c2ccc(Cl)cc21
Output line: -13.9

====

# tested_on: Virion infectivity factor (Human immunodeficiency virus type 1 group M subtype B (isolate BH10)) + Virion infectivity factor (Human immunodeficiency virus type 1 group M subtype B (isolate BRU/LAI)) + Virion infectivity factor (Human immunodeficiency virus type 1 group M subtype B (isolate PCV12)) + Virion infectivity factor (Human immunodeficiency virus type 1 group M subtype B (isolate HXB2)) + DNA dC->dU-editing enzyme APOBEC-3G (Homo sapiens) (UniProt P69720+P69721+P69722+P69723+Q9HC16)
# experimental_protocol: inhibitors of Vif binding to APOBEC3G peptide, primary screen, biochemical, TR-FRET, GST-Vif 1-94, biotin-A3G peptide, dose response retest (AID 1117319)
# settings: stronger effect = higher value
The campaign covered roughly 260,000 compounds. About 1,500 (0.58%) were called active. Inconclusive results (about 5%) are left out. Not all results are given here. Potency and affinity values are given separately.
measure: inhibition (%)
I only need the number, in %, no unit after it.

Input line: Look up inhibition: Cc1ccc(N(CC(=O)NCc2ccc3c(c2)OCO3)S(=O)(=O)c2c(C)noc2C)cc1
Output line: 1.33

Input line: Look up inhibition: Cc1ccc(NC(=O)CSc2nc(=O)n(CCN(C)C)c3c2CCCC3)cc1Cl
Output line: -8.42

Input line: Look up inhibition: O=C(NCCc1ccccc1)c1ncn[nH]1
Output line: 28.1

Input line: Look up inhibition: COC(=O)c1ccccc1NC(=O)c1noc2c1CCCC2
Output line: 3.34

Input line: Look up inhibition: CCCNC(=O)Cc1ncn[nH]1
Output line: -3.15

====

# tested_on: Virion infectivity factor (Human immunodeficiency virus type 1 group M subtype B (isolate BH10)) + Virion infectivity factor (Human immunodeficiency virus type 1 group M subtype B (isolate BRU/LAI)) + Virion infectivity factor (Human immunodeficiency virus type 1 group M subtype B (isolate PCV12)) + Virion infectivity factor (Human immunodeficiency virus type 1 group M subtype B (isolate HXB2)) + DNA dC->dU-editing enzyme APOBEC-3G (Homo sapiens) (UniProt P69720+P69721+P69722+P69723+Q9HC16)
# experimental_protocol: inhibitors of Vif binding to APOBEC3G peptide, primary screen, biochemical, TR-FRET, GST-Vif 1-94, biotin-A3G peptide, dose response retest (AID 1117319);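 also: Vif residues 1-94 fused to GST binding biotinylated APOBEC3G peptide 110-148; 0% = full assay without inhibitor and 100% = GST in place of GST-Vif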
# settings: stronger effect = higher value
Hit rate of the full screen: of about 260,000 compounds, about 1,500 (0.58%) were called active. Another 5% or so got no clear call; they are omitted. Only a sample is shown. Results with a measured potency or affinity are listed apart.
Listing of recorded inhibition by entry.

Past entries and their recorded results:
| compound_string | inhibition |
| --- | --- |
| CC1CCN(c2nc(-c3ccco3)c3c(c2C#N)CC(C)(C)OC3)CC1 | 27.3% (inactive) |
| NC(=O)COC(=O)CNC(=O)c1ccc(Cl)cc1 | -2.39% (inactive) |

Query compound follows.
Input line: Look up inhibition: CC(=O)c1ccc(NC(=O)c2ccc(-n3cnnn3)cc2)cc1
Output line: -12.9% (inactive)

====

Listing of recorded inhibition by entry.
# tested_on: Virion infectivity factor (Human immunodeficiency virus type 1 group M subtype B (isolate BH10)) + Virion infectivity factor (Human immunodeficiency virus type 1 group M subtype B (isolate BRU/LAI)) + Virion infectivity factor (Human immunodeficiency virus type 1 group M subtype B (isolate PCV12)) + Virion infectivity factor (Human immunodeficiency virus type 1 group M subtype B (isolate HXB2)) + DNA dC->dU-editing enzyme APOBEC-3G (Homo sapiens) (UniProt P69720+P69721+P69722+P69723+Q9HC16)
# experimental_protocol: inhibitors of Vif binding to APOBEC3G peptide, primary screen, biochemical, TR-FRET, GST-Vif 1-94, biotin-A3G peptide, dose response retest (AID 1117319);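 also: Vif residues 1-94 fused to GST binding biotinylated APOBEC3G peptide 110-148; 0% = full assay without inhibitor and 100% = GST in place of GST-Vif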
# settings: stronger effect = higher value
About 1,500 (0.58%) of roughly 260,000 compounds were called active. About 5% were inconclusive and are not listed. Only a sample is shown. Measured potencies and affinities stand elsewhere.
I only need the number, in %, no unit after it.

Past entries and their recorded results:
| compound | inhibition (%) |
| --- | --- |
| Cc1cc(N)c2ccccc2n1 | 3.24 |
| CCN(CC(=O)Nc1cc(Cl)ccc1C)C(=O)c1ccc2c(=O)n3c(nc2c1)CCC3 | 2.7 |
| COC(=O)\C(C(C)=O)=C(/C=C/C=C/N(C)C)N(C)C | 27.9 |
| CCC(C)NCCCOc1c(C)cc(C)cc1Br (centres undefined) | -1.93 |
| COC(=O)C1=C(CS(=O)(=O)c2ccc(Cl)cc2)NC(=O)NC1c1ccc(O)cc1 (centres undefined) | 9.59 |
| Cc1ccc(S(=O)(=O)c2c(N)n(Cc3ccco3)c3nc4ccccc4nc23)cc1 | 2.43 |
| CC1=C(C(=O)OC(C)C)C(c2cccs2)C(C(=O)OC(C)C)=C(C)N1 | -3.55 |
| COc1cccc(NS(=O)(=O)c2ccc3c(c2)NC(=O)CC(=O)N3)c1 | -6.3 |
| O=C(CSc1ncn[nH]1)Nc1ccc2c(c1)CCC2 | -3.75 |
| COC(=O)/C(C(C)=O)=C(/C=C/C=C/N(C)C)N(C)C | 16.1 |

Input line: Look up inhibition: O=S(=O)(NCCN1CCCC1)c1ccc(C(F)(F)F)cc1
Output line: 1.25

Input line: Look up inhibition: Cc1ccc(S(=O)(=O)c2c(N)n(Cc3ccco3)c3nc4ccccc4nc23)cc1C
Output line: 5.39

Input line: Look up inhibition: Oc1cccc2ccc(N3CCOCC3)nc12
Output line: -8.55

Input line: Look up inhibition: O=C(/C=C/Nc1ccc(F)cc1)c1ccco1
Output line: 10.5

Input line: Look up inhibition: COc1ccc(N2CCN(CCNC(=O)Nc3ccc(C)c(Cl)c3)CC2)cc1
Output line: 0.91

Input line: Look up inhibition: Cc1ccc(NC(=S)C2=C(O)c3sccc3N(C)S2(=O)=O)cc1
Output line: 10.2

Input line: Look up inhibition: CC(C)C12CN3CC(C(C)C)(CN(C1)C3c1ccc3c(c1)OCO3)C2=O (centres undefined)
Output line: 2.83

Input line: Look up inhibition: CC1(C)Cc2c(C#N)c(N)sc(=S)c2CO1
Output line: 18.9

Input line: Look up inhibition: O=C1CCCC(O)=C1N=Nc1ccc2ncsc2c1
Output line: 1.8

Input line: Look up inhibition: COc1ccc(CNC(=O)CSc2ncnc3ccccc23)cc1OC
Output line: -8.65

====

Listing of recorded inhibition by entry.
# tested_on: Virion infectivity factor (Human immunodeficiency virus type 1 group M subtype B (isolate BH10)) + Virion infectivity factor (Human immunodeficiency virus type 1 group M subtype B (isolate BRU/LAI)) + Virion infectivity factor (Human immunodeficiency virus type 1 group M subtype B (isolate PCV12)) + Virion infectivity factor (Human immunodeficiency virus type 1 group M subtype B (isolate HXB2)) + DNA dC->dU-editing enzyme APOBEC-3G (Homo sapiens) (UniProt P69720+P69721+P69722+P69723+Q9HC16)
# experimental_protocol: inhibitors of Vif binding to APOBEC3G peptide, primary screen, biochemical, TR-FRET, GST-Vif 1-94, biotin-A3G peptide, dose response retest (AID 1117319);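 also: Vif residues 1-94 fused to GST binding biotinylated APOBEC3G peptide 110-148; 0% = full assay without inhibitor and 100% = GST in place of GST-Vif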
# settings: stronger effect = higher value
Among all 260,000 compounds or so, about 1,500 (0.58%) were called active. Inconclusive results (about 5%) are left out. A selection follows. Entries with a potency or affinity are not part of this list.
I only need the number, in %, no unit after it.

Past entries and their recorded results:
| compound | measure | units_symbol | readout_number |
| --- | --- | --- | --- |
| Oc1cccc(/C=N/N2CCN(c3ccccn3)CC2)c1 | inhibition | % | 3.52 |
| CC(=O)c1c(C)[nH]c(C(=O)NCc2ccc(F)cc2)c1C | inhibition | % | -3.52 |
| O=C(NCCCN1CCN(CCCNC(=O)c2cccc([N+](=O)[O-])c2)CC1)c1cccc([N+](=O)[O-])c1 | inhibition | % | 1.34 |
| Oc1c(CN2CCOCC2)cc(CN2CCOCC2)c(O)c1CN1CCOCC1 | inhibition | % | 4.15 |
| CCOc1ccc(CCNC(=O)COC(=O)Cc2c[nH]c3ccccc23)cc1OCC | inhibition | % | 2.44 |
| CN1CCN(CCCNC(=O)c2ccc(/C=C3/Sc4ccccc4N(Cc4cccc(Cl)c4)C3=O)cc2)CC1 | inhibition | % | 2.32 |

Input line: Look up inhibition: Cc1ccc(-c2nc(N)n(S(=O)(=O)c3ccc(C)cc3)n2)cc1
Output line: 0.67

Input line: Look up inhibition: CCc1nc(SCC(=O)c2ccccc2)c2c(=O)n(C)c(=O)n(C)c2n1
Output line: -11.9

Input line: Look up inhibition: CC1NC(=O)NC1CCCCCC(=O)NCCc1ccccc1 (configuration not stated)
Output line: 31.4

Input line: Look up inhibition: O=c1cc(-c2ccc(O)cc2)oc2ccc(O)cc12
Output line: 28.2

Input line: Look up inhibition: CNC(=S)N1CCN(c2ccc(Cl)c(Cl)c2)CC1
Output line: 1.98

Input line: Look up inhibition: CCCCSc1nnc(CCCCCNC(=O)OC(C)(C)C)o1
Output line: 1.82

Input line: Look up inhibition: CC(=O)OC12CC3CC(C1)C(=NO)C(C3)C2
Output line: -2.41

Input line: Look up inhibition: Cc1ccc(S(=O)(=O)N2CCOCC2)cc1C(=O)NC1CCCCC1
Output line: 1.31

Input line: Look up inhibition: Cc1ccc(NC(=O)CCC(=O)Nc2ccc(C)cc2)cc1
Output line: 2.94

Input line: Look up inhibition: CCOC(=O)c1oc2ccccc2c1COC(=O)CNC(=O)c1cccc(C)c1
Output line: -6.29
